Target: B-cell lymphoma 6 protein (Homo sapiens)
Assay: Inhibition of human BCL6 BTP domain measured by cell reporter assay
attributeMeasured: IC50
Quick note: number first, unit second.

// query # query: IC50 of entry `N#Cc1cnn2c3cc(nc12)N1C[C@H](C[C@H]1CO)OC/C=C/COc1cc(cc2c1NC(=O)CC2)N3`
// result 2 µM

###

Hi there, I'd appreciate the recorded Kd for every entry that follows.
The response must be a number in µM with no trailing unit.

// query For the record `Nc1ncnc(Nc2ccccc2)n1` , what value of Kd is listed for B-cell lymphoma 6 protein (Homo sapiens)?
// result 1200

// query Please provide the recorded Kd for `N#Cc1cnn2c(Nc3ccc4c(c3)CCC(=O)N4)cc(N3CCC[C@H]3CC(=O)O)nc12` , tested on B-cell lymphoma 6 protein (Homo sapiens).
// result 1.1

###

Target: B-cell lymphoma 6 protein (Homo sapiens, UniProt P41182)
Test: Inhibition of human BCL6 BTP domain
attributeMeasured: pIC50
Note on pIC50: it is the negative log10 of concentration, concentration in mol/L.

// query Could you tell me which pIC50 is on file for `CNC(=O)COc1cc2cc(Nc3nc(-n4nc(C)cc4C)ncc3Cl)ccc2n(C)c1=O` ?
// result 7.92
